tested on: Moraxella catarrhalis; assay: Antibacterial activity against Moraxella catarrhalis; assay type: functional
measurement type: MIC

Worked examples follow.
structure | measurement type | result
COc1ccccc1NC(=O)N1CCCN1C(=O)[C@H](CC1CCCC1)CN(O)C=O | MIC | 0.25 µg/mL
O=C(C[C@@H](CC1CCCC1)C(=O)N1CCCCN1C(=O)c1ccco1)NO | MIC | 0.06 µg/mL
O=CN(O)C[C@@H](CC1CCCC1)C(=O)N1CCCN1C(=O)c1ccco1 | MIC | < 0.125 µg/mL
O=CN(O)C[C@@H](CC1CCCC1)C(=O)N1CCCCN1C(=O)c1ccco1 | MIC | < 0.125 µg/mL
O=CN(O)C[C@@H](CC1CCCC1)C(=O)N1CCCN1C(=O)Nc1ccc(C(F)(F)F)cc1 | MIC | 0.06 µg/mL

Lab note: molecule O=CN(O)C[C@@H](CC1CCCC1)C(=O)N1CCCCN1C(=O)c1ccoc1 tested on Moraxella catarrhalis; recorded MIC was < 0.03 µg/mL

Lab note: molecule CC(C)(C)OC(=O)N1CCCN1C(=O)[C@H](CC1CCCC1)CN(O)C=O tested on Moraxella catarrhalis; recorded MIC was < 0.125 µg/mL

* * *

Target: Peptide deformylase (Escherichia coli, UniProt Q9JN24)
Sequence (Q9JN24 whole entry): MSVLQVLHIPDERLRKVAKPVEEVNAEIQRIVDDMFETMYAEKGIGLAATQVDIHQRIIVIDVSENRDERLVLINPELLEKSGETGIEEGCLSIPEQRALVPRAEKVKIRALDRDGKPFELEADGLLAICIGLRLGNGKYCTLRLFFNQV
Doc: threshold 30 nM (exclusive). Items with IC50 beneath it return satisfied; others return not satisfied.

structure | label
O=CN(O)C[C@@H](CC1CCCC1)C(=O)N1CCCN1C(=O)c1ccccc1 | not satisfied
O=CN(O)C[C@@H](CC1CCCC1)C(=O)N1CCCCN1C(=O)c1ccncc1 | not satisfied
O=CN(O)C[C@@H](CC1CCCC1)C(=O)N1CCCN1C(=O)c1ccncc1 | not satisfied

Okay, next one:
Take the compound CC(C)(C)OC(=O)N1CCCCN1C(=O)[C@H](CC1CCCC1)CN(O)C=O and say whether its IC50 is less than 30 nM. satisfied

* * *

target: Peptide deformylase (Escherichia coli); test: Inhibition of Escherichia coli nickel containing peptide deformylase
measurement type: IC50
Answer with the figure and its unit, nothing else.

Worked examples follow.
structure | system | IC50
COc1cccc(NC(=O)N2CCCCN2C(=O)[C@H](CC2CCCC2)CN(O)C=O)c1 | Peptide deformylase (Escherichia coli) | 20 nM
O=CN(O)C[C@@H](CC1CCCC1)C(=O)N1CCCCN1C(=O)c1ccco1 | Peptide deformylase (Escherichia coli) | 5 nM
O=CN(O)C[C@@H](CC1CCCC1)C(=O)N1CCCCN1C(=O)C1CCCCC1 | Peptide deformylase (Escherichia coli) | 200 nM
O=CN(O)C[C@@H](CC1CCCC1)C(=O)N1CCCCN1C(=O)c1ccoc1 | Peptide deformylase (Escherichia coli) | 6 nM
O=C(C[C@@H](CC1CCCC1)C(=O)N1CCCCN1C(=O)Nc1ccccc1)NO | Peptide deformylase (Escherichia coli) | 20 nM

Given item O=CN(O)C[C@@H](CC1CCCC1)C(=O)N1CCCN1C(=O)c1ccoc1 , the value recorded as its IC50 is 10 nM

Given item O=CN(O)C[C@@H](CC1CCCC1)C(=O)N1CCCCN1C(=O)Nc1ccc(F)cc1 , the value recorded as its IC50 is 10 nM

Given item COc1ccccc1NC(=O)N1CCCN1C(=O)[C@H](CC1CCCC1)CN(O)C=O , the value recorded as its IC50 is 7 nM

Given item O=CN(O)C[C@@H](CC1CCCC1)C(=O)N1CCCCN1C(=O)Nc1ccccc1 , the value recorded as its IC50 is 20 nM

Given item O=CN(O)C[C@@H](CC1CCCC1)C(=O)N1CCCN1C(=O)C1CCCCC1 , the value recorded as its IC50 is 40 nM

Data origin, for the record: ChEMBL document CHEMBL1795242
